Test system: Haemophilus influenzae
Assay: Antibacterial activity against azithromycin-susceptible Haemophilus influenzae ATCC 49247 assessed as reduction in microbial growth by CLSI based two-fold broth dilution method
Format: functional
Catalogue of log10 MIC readings, one per entry.
property label: log10 MIC (log10 of the value in µg/mL)

{"mol": "CC[C@H]1OC(=O)[C@@](C)(F)C(=O)[C@H](C)[C@@H](O[C@@H]2O[C@H](C)C[C@H](N(C)C)[C@H]2O)[C@](C)(OC)C[C@@H](C)/C(=N\\OCC#Cc2cncc3ccccc23)[C@H](C)[C@H]2OC(=O)O[C@@]21C", "log10 MIC": 1.81}
{"mol": "CC[C@H]1OC(=O)[C@@](C)(F)C(=O)[C@H](C)[C@@H](O[C@@H]2O[C@H](C)C[C@H](N(C)C)[C@H]2O)[C@](C)(OC/C=C/c2cncc(C(=O)O)c2)C[C@@H](C)/C(=N\\OC)[C@H](C)[C@H]2OC(=O)O[C@@]21C", "log10 MIC": 0.90}
{"mol": "CC[C@H]1OC(=O)[C@@](C)(F)C(=O)[C@H](C)[C@@H](O[C@@H]2O[C@H](C)C[C@H](N(C)C)[C@H]2O)[C@](C)(OC)C[C@@H](C)/C(=N\\OC/C=C/c2cncc(C(=O)O)c2)[C@H](C)[C@H]2OC(=O)O[C@@]21C", "log10 MIC": 1.51}
{"mol": "CC[C@H]1OC(=O)[C@@](C)(F)C(=O)[C@H](C)[C@@H](O[C@@H]2O[C@H](C)C[C@H](N(C)C)[C@H]2O)[C@](C)(OC)C[C@@H](C)/C(=N\\OCC#Cc2ccc3[nH]ccc(=O)c3c2)[C@H](C)[C@H]2OC(=O)O[C@@]21C", "log10 MIC": 1.20}
{"mol": "CC[C@H]1OC(=O)[C@@](C)(F)C(=O)[C@H](C)[C@@H](O[C@@H]2O[C@H](C)C[C@H](N(C)C)[C@H]2O)[C@](C)(OC)C[C@@H](C)/C(=N\\OC/C=C/c2ccc3ncc(C(=O)O)cc3c2)[C@H](C)[C@H]2OC(=O)O[C@@]21C", "log10 MIC": 1.51}
{"mol": "CC[C@H]1OC(=O)[C@@](C)(F)C(=O)[C@H](C)[C@@H](O[C@@H]2O[C@H](C)C[C@H](N(C)C)[C@H]2O)[C@](C)(OC/C=C/c2ccc3ncc(C(=O)O)cc3c2)C[C@@H](C)/C(=N\\OC)[C@H](C)[C@H]2OC(=O)O[C@@]21C", "log10 MIC": 0.60}
{"mol": "CC[C@H]1OC(=O)[C@@](C)(F)C(=O)[C@H](C)[C@@H](O[C@@H]2O[C@H](C)C[C@H](N(C)C)[C@H]2O)[C@](C)(OC)C[C@@H](C)/C(=N\\OCC#Cc2ccc3c(c2)c(=O)c(C(=O)O)cn3C2CC2)[C@H](C)[C@H]2OC(=O)O[C@@]21C", "log10 MIC": 0.90}
{"mol": "CC[C@H]1OC(=O)[C@H](C)[C@@H](O[C@H]2C[C@@](C)(OC)[C@@H](O)[C@H](C)O2)[C@H](C)[C@@H](O[C@@H]2O[C@H](C)C[C@H](N(C)C)[C@H]2O)[C@](C)(O)C[C@@H](C)CN(C)[C@H](C)[C@@H](O)[C@]1(C)O", "log10 MIC": 0.30}
{"mol": "CC[C@H]1OC(=O)[C@@](C)(F)C(=O)[C@H](C)[C@@H](O[C@@H]2O[C@H](C)C[C@H](N(C)C)[C@H]2O)[C@](C)(OC)C[C@@H](C)/C(=N\\OCC#Cc2cncc(C(=O)NC)c2)[C@H](C)[C@H]2OC(=O)O[C@@]21C", "log10 MIC": 0.90}
{"mol": "CC[C@H]1OC(=O)[C@@](C)(F)C(=O)[C@H](C)[C@@H](O[C@@H]2O[C@H](C)C[C@H](N(C)C)[C@H]2O)[C@](C)(OC/C=C/c2ccc3c(c2)c(=O)c(C(=O)NC)cn3CC)C[C@@H](C)/C(=N\\OC)[C@H](C)[C@H]2OC(=O)O[C@@]21C", "log10 MIC": 2.41}
{"mol": "CC[C@H]1OC(=O)[C@@](C)(F)C(=O)[C@H](C)[C@@H](O[C@@H]2O[C@H](C)C[C@H](N(C)C)[C@H]2O)[C@](C)(OC/C=C/c2cncc(C(N)=O)c2)C[C@@H](C)/C(=N\\OC)[C@H](C)[C@H]2OC(=O)O[C@@]21C", "log10 MIC": 0.60}
{"mol": "CC[C@H]1OC(=O)[C@H](C)[C@@H](O[C@H]2C[C@@](C)(OC)[C@@H](O)[C@H](C)O2)[C@H](C)[C@@H](O[C@@H]2O[C@H](C)C[C@H](N(C)C)[C@H]2O)[C@](C)(OC)C[C@@H](C)C(=O)[C@H](C)[C@@H](O)[C@]1(C)O", "log10 MIC": 0.60}
{"mol": "CC[C@H]1OC(=O)[C@@](C)(F)C(=O)[C@H](C)[C@@H](O[C@@H]2O[C@H](C)C[C@H](N(C)C)[C@H]2O)[C@](C)(OC/C=C/c2ccc3c(c2)c(=O)c(C(N)=O)cn3CC)C[C@@H](C)/C(=N\\OC)[C@H](C)[C@H]2OC(=O)O[C@@]21C", "log10 MIC": 1.81}
{"mol": "CC[C@H]1OC(=O)[C@@](C)(F)C(=O)[C@H](C)[C@@H](O[C@@H]2O[C@H](C)C[C@H](N(C)C)[C@H]2O)[C@](C)(OC)C[C@@H](C)/C(=N\\OC/C=C/c2ccc3c(c2)c(=O)c(C(N)=O)cn3CC)[C@H](C)[C@H]2OC(=O)O[C@@]21C", "log10 MIC": 1.51}
{"mol": "CC[C@H]1OC(=O)[C@@](C)(F)C(=O)[C@H](C)[C@@H](O[C@@H]2O[C@H](C)C[C@H](N(C)C)[C@H]2O)[C@](C)(OC)C[C@@H](C)/C(=N\\OCC#Cc2ccc([N+](=O)[O-])nc2)[C@H](C)[C@H]2OC(=O)O[C@@]21C", "log10 MIC": 1.20}

----------
Tested on: Streptococcus pyogenes
Experiment: Antibacterial activity against MLS-resistant Streptococcus pyogenes 01-968 expressing inducible ermB gene assessed as reduction in microbial growth by CLSI based two-fold broth dilution method
Format: functional

{"mol": "CC[C@H]1OC(=O)[C@@](C)(F)C(=O)[C@H](C)[C@@H](O[C@@H]2O[C@H](C)C[C@H](N(C)C)[C@H]2O)[C@](C)(OC/C=C/c2ccc3c(c2)c(=O)c(C(N)=O)cn3C2CC2)C[C@@H](C)/C(=N\\OC)[C@H](C)[C@H]2OC(=O)O[C@@]21C", "scale unit": "µg/mL", "value prefix": "≤", "MIC": 0.002}
{"mol": "CC[C@H]1OC(=O)[C@@](C)(F)C(=O)[C@H](C)[C@@H](O[C@@H]2O[C@H](C)C[C@H](N(C)C)[C@H]2O)[C@](C)(OC)C[C@@H](C)/C(=N\\OC/C=C/c2cncc(O)c2)[C@H](C)[C@H]2OC(=O)O[C@@]21C", "scale unit": "µg/mL", "value prefix": "=", "MIC": 0.062}
{"mol": "CC[C@H]1OC(=O)[C@@](C)(F)C(=O)[C@H](C)[C@@H](O[C@@H]2O[C@H](C)C[C@H](N(C)C)[C@H]2O)[C@](C)(OC)C[C@@H](C)/C(=N\\OC/C=C/c2ccc3[nH]ccc(=O)c3c2)[C@H](C)[C@H]2OC(=O)O[C@@]21C", "scale unit": "µg/mL", "value prefix": "=", "MIC": 0.062}
{"mol": "CC[C@H]1OC(=O)[C@@](C)(F)C(=O)[C@H](C)[C@@H](O[C@@H]2O[C@H](C)C[C@H](N(C)C)[C@H]2O)[C@](C)(OC/C=C/c2ccc3c(c2)c(=O)c(C(=O)NC)cn3CC)C[C@@H](C)/C(=N\\OC)[C@H](C)[C@H]2OC(=O)O[C@@]21C", "scale unit": "µg/mL", "value prefix": "≤", "MIC": 0.002}
{"mol": "CC[C@H]1OC(=O)[C@@](C)(F)C(=O)[C@H](C)[C@@H](O[C@@H]2O[C@H](C)C[C@H](N(C)C)[C@H]2O)[C@](C)(OC)C[C@@H](C)/C(=N\\OC/C=C/c2cncc(C(N)=O)c2)[C@H](C)[C@H]2OC(=O)O[C@@]21C", "scale unit": "µg/mL", "value prefix": "=", "MIC": 0.062}
{"mol": "CC[C@H]1OC(=O)[C@@](C)(F)C(=O)[C@H](C)[C@@H](O[C@@H]2O[C@H](C)C[C@H](N(C)C)[C@H]2O)[C@](C)(OC/C=C/c2cncc(C(=O)O)c2)C[C@@H](C)/C(=N\\OC)[C@H](C)[C@H]2OC(=O)O[C@@]21C", "scale unit": "µg/mL", "value prefix": "=", "MIC": 0.125}
{"mol": "CC[C@H]1OC(=O)[C@@](C)(F)C(=O)[C@H](C)[C@@H](O[C@@H]2O[C@H](C)C[C@H](N(C)C)[C@H]2O)[C@](C)(OC)C[C@@H](C)/C(=N\\OC/C=C/c2cncc(C(=O)O)c2)[C@H](C)[C@H]2OC(=O)O[C@@]21C", "scale unit": "µg/mL", "value prefix": "=", "MIC": 0.5}
{"mol": "CC[C@H]1OC(=O)[C@@](C)(F)C(=O)[C@H](C)[C@@H](O[C@@H]2O[C@H](C)C[C@H](N(C)C)[C@H]2O)[C@](C)(OC/C=C/c2ccc3[nH]cc(C(=O)O)c(=O)c3c2)C[C@@H](C)/C(=N\\OC)[C@H](C)[C@H]2OC(=O)O[C@@]21C", "scale unit": "µg/mL", "value prefix": "=", "MIC": 0.031}
